MEASUREMENT_TARGET: AURKB (human)
MEASUREMENT_DESCRIPTION: KINOMEscan competition binding
TEST_PARAMETERS: compound 10.0 µM
RECORDED_ENDPOINT: kinase still bound, per cent of control (%)
Give just the number in %; leave the unit off.

| GIVEN_SMILES | MEASUREMENT_TARGET | kinase still bound, per cent of control, % |
| --- | --- | --- |
| COc1cc(N2CCC(C(N)=O)CC2)ccc1Nc1nc(N)c(Cl)c(Nc2ccccc2S(=O)(=O)C(C)C)n1 | AURKB (human) | 100 |

*Q* Could you tell me which kinase still bound, per cent of control is on file for CCN(CCO)CCCOc1ccc2c(Nc3cc(CC(=O)Nc4cccc(F)c4)[nH]n3)ncnc2c1 ?
*A* 0.2

*Q* Could you tell me which kinase still bound, per cent of control is on file for Cc1cn(-c2cc(C(=O)Nc3ccc(C)c(NC(=O)c4ccno4)c3)cc(C(F)(F)F)c2)cn1 ?
*A* 100

*Q* Could you tell me which kinase still bound, per cent of control is on file for CCN1CCN(Cc2ccc(NC(=O)c3ccc(C)c(/C=C/c4cnc5[nH]ccc5c4OC)c3)cc2C(F)(F)F)CC1 ?
*A* 16

*Q* Could you tell me which kinase still bound, per cent of control is on file for CCc1nc(-c2cccc(C)c2)c(-c2ccnc(NC(=O)c3ccccc3)c2)s1 ?
*A* 100

*Q* Could you tell me which kinase still bound, per cent of control is on file for CCOc1cc(N2CCC(O)CC2)ccc1Nc1ncc2c(n1)N(C)c1ccccc1C(=O)N2C ?
*A* 100
